system: COLO 205 colon; test: NCI-60 one-dose screen, 48 h (100 = growth as untreated, 0 = no growth, -100 = all killed); conditions: 10 µM unless noted
Compounds without any hit were thinned out: in the full panel of roughly 83,000, 20% have a hit. Calls of active or inactive are those of the source. The calls were made as follows: active = growth percent below 10; inactive = the rest.
This section presents molecules with their documented growth values.
RECORDED METRIC: growth

molecule=O=C(Nc1cccc(Cl)c1)Nc1ccccc1Cl target_or_system="COLO 205 colon" result="121% (inactive)"
molecule=COc1ccc(C(=O)O)cc1.[Ag] target_or_system="COLO 205 colon" result="61.8% (inactive)"
molecule=O=C(N/N=C\c1cc(Br)ccc1O)c1ccncc1 target_or_system="COLO 205 colon" result="7.89% (active)"
molecule=Nc1cc(C(=O)O)cc(C(=O)O)c1 target_or_system="COLO 205 colon" result="99% (inactive)"
molecule=Clc1nnc2c3ccccc3ccn12 target_or_system="COLO 205 colon" result="103% (inactive)"
molecule=CC1CCN(CCCCCOc2ccc3oc4ccc(Cl)cc4c(=O)c3c2)CC1 target_or_system="COLO 205 colon" result="21.7% (inactive)"
molecule=CCOC(=O)c1cc(C(=O)OCC)c(C)nc1C target_or_system="COLO 205 colon" result="109% (inactive)"
molecule="COc1cc(C2C(C#N)=C(N)Oc3cc4c(cc32)OCO4)cc2c1OCO2 (stereo not drawn)" target_or_system="COLO 205 colon" result="-42.1% (active)"
molecule=COc1cc(Nc2ncccc2/C=C/C(=O)c2cc(OC)c(OC)c(OC)c2)cc(OC)c1OC target_or_system="COLO 205 colon" result="75.2% (inactive)"
molecule=Fc1ccc(-c2nc(-c3ccc(-c4nc5ccc(F)cc5[nH]4)cc3)no2)cc1 target_or_system="COLO 205 colon" result="71.6% (inactive)"
molecule=CCOC(=O)Cc1cc(Br)c(OCc2ccccc2)c(Br)c1 target_or_system="COLO 205 colon" result="127% (inactive)"
molecule=C=C1C(=O)O[C@H]2[C@H]1CC/C(COC(=O)NCc1c[nH]c3ccc(OC)cc13)=C\CC[C@@]1(C)O[C@@H]21 target_or_system="COLO 205 colon" result="-69.2% (active)"
molecule=C[C@@H]1N=C(c2ccc3ccccc3c2)Nc2nc3ccccn3c2C1=O target_or_system="COLO 205 colon" result="22.8% (inactive)"
molecule=Cc1cc([N+](=O)[O-])c(C)cc1N target_or_system="COLO 205 colon" result="121% (inactive)"
molecule=CN(C)CCNC(=O)n1cc(-c2ccncc2)c(-c2cc(O)cc(Cl)c2)n1 target_or_system="COLO 205 colon" result="88.6% (inactive)"
molecule=CN(C)N1C(=O)c2c(Cl)c(Cl)c(Cl)c(Cl)c2C1=O target_or_system="COLO 205 colon" result="111% (inactive)"
molecule=C=C1C(=O)O[C@H]2[C@H]1CC/C(COC(=O)NCc1cn(C)c3ccccc13)=C\CC[C@@]1(C)O[C@@H]21 target_or_system="COLO 205 colon" result="-75.3% (active)"
molecule=CC(=O)c1ccc(N2C(=O)c3ccc(Oc4ccccc4)cc3C2=O)cc1 target_or_system="COLO 205 colon" result="116% (inactive)"
molecule=COC(=O)c1ccc2c(c1)nc(-c1ccc(Cl)cc1)n2-c1cc(C(C)(C)C)[nH]n1 target_or_system="COLO 205 colon" result="112% (inactive)"
molecule="COc1cc(C2CC(=O)Nc3c2cnn3C)cc(OC)c1OC (stereo not drawn)" target_or_system="COLO 205 colon" result="110% (inactive)"
molecule="COc1cc(C2CC(c3ccccc3)=NN2C=O)ccc1Oc1nc2c(c(=O)n(C)c(=O)n2C)n1C (stereo not drawn)" target_or_system="COLO 205 colon" result="105% (inactive)"
molecule=Clc1cccc(CNc2c3ccccc3nc3ccccc23)c1 target_or_system="COLO 205 colon" result="0.537% (active)"
molecule=COc1cc(OC)cc(-c2ccc(-c3ccc(C(=N)N)s3)s2)c1 target_or_system="COLO 205 colon" result="-78.1% (active)"
